- MEASURED TARGET: human mAChR M1 (Homo sapiens, UniProt P11229)
- PROCEDURE DETAILS: mAChR M1 cell-based functional assay (calcium mobilization), PAM mode: increase in the EC20 acetylcholine response
METRIC: EC50

- [2H]C1([2H])c2ncccc2C(=O)N1Cc1ccc(-c2ccc(C)c3nn(C)cc23)cc1C [Compound 30]: 1090 nM
- [2H]C1([2H])c2ncccc2C(=O)N1Cc1c(C)cc(-c2ccc3nn(C)cc3c2)cc1F [Compound 194]: 437 nM
- [2H]C1([2H])c2ncccc2C(=O)N1Cc1ccc(-c2ccc(OCC3CCCO3)c3nn(C)cc23)cc1F (stereo not shown) [Compound 147]: 1100 nM
- [2H]C1([2H])c2ncccc2C(=O)N1Cc1ccc(-c2ccc(OCC3CCO3)c3nn(C)cc23)cc1F (stereo not shown) [Compound 145]: 1070 nM
- [2H]C1([2H])c2ncccc2C(=O)N1Cc1c(F)cc(-c2cccc3nn(C)cc23)cc1C1CC1 [Compound 192]: 137 nM
- [2H]C1([2H])c2ncccc2C(=O)N1Cc1c(F)cc(-c2cc(OC)cc3nn(C)cc23)cc1F [Compound 90]: 1700 nM
- [2H]C1([2H])c2ncccc2C(=O)N1Cc1c(F)cc(-c2cc(F)c3nn(C)cc3c2)cc1F [Compound 7]: 952 nM

###

Reported values of Emax for individual entries
- MEASURED TARGET: human mAChR M1 (Homo sapiens, UniProt P11229)
- Sequence (P11229 1-460): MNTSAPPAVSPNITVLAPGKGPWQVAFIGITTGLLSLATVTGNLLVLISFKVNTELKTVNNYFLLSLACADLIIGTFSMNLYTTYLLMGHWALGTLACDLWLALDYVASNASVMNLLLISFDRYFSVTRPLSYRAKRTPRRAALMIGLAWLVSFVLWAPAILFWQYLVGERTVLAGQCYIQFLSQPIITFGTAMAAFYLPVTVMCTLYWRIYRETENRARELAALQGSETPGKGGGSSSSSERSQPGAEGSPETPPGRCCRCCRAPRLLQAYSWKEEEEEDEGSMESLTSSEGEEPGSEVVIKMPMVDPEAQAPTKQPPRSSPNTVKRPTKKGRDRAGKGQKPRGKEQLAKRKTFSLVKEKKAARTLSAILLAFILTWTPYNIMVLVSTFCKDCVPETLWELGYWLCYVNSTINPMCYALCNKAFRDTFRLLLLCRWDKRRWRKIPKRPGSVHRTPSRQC
- PROCEDURE DETAILS: mAChR M1 cell-based functional assay (calcium mobilization), agonist mode: compound alone, Emax relative to acetylcholine maximum
- CONDITION INFO: relative to the maximum for acetylcholine
METRIC: Emax (%)

• [2H]C1([2H])c2ncccc2C(=O)N1Cc1c(F)cc(-c2cccc3nn(C4COC4)cc23)cc1F [Compound 49] = 2
• [2H]C1([2H])c2ncccc2C(=O)N1Cc1ccc(-c2ccc(O[C@@H]3CCOC3)c3nn(C)cc23)cc1F [Compound 151] = 22
• [2H]C1([2H])c2ncccc2C(=O)N1Cc1ccc(-c2cc3cn(C)nc3cc2C)cc1 [Compound 16] = 3
• [2H]C1([2H])c2ncccc2C(=O)N1Cc1c(F)cc(-c2cnc3nn(C([2H])([2H])[2H])cc3c2)cc1F [Compound 115] = 6
• [2H]C1([2H])c2ncccc2C(=O)N1Cc1c(F)cc(-c2cccc3nn(C([2H])([2H])[2H])cc23)cc1F [Compound 31] = 28
• [2H]C1([2H])c2ncccc2C(=O)N1Cc1c(F)cc(-c2ccc(O)c3nn(C)cc23)cc1F [Compound 130] = 52
• [2H]C1([2H])c2ncccc2C(=O)N1Cc1ccc(-c2ccc3c(cnn3C)c2)cc1 [Compound 237] = 2

###

Reported values of Emax for individual entries
- MEASURED TARGET: UniProtKB P11229
- PROCEDURE DETAILS: mAChR M1 cell-based functional assay (calcium mobilization), PAM mode: increase in the EC20 acetylcholine response
METRIC: Emax (%)

• [2H]C1([2H])c2ncccc2C(=O)N1Cc1c(F)cc(-c2ccc(OC3CC3)c3nn(C)cc23)cc1OCC(C)C [Compound 212] = 82
• [2H]C1([2H])c2ncccc2C(=O)N1Cc1c(F)cc(-c2ccc(OCS(C)(=O)=O)c3nn(C)cc23)cc1F [Compound 186] = 72
• [2H]C1([2H])c2ncccc2C(=O)N1Cc1c(F)cc(-c2ccc3nn(C)cc3c2)cc1OCC(C)C [Compound 211] = 88
• [2H]C1([2H])c2ncccc2C(=O)N1Cc1c(F)cc(-c2ccc(OC3CCC3)c3nn(C)cc23)cc1F [Compound 125] = 72
• [2H]C1([2H])c2ncccc2C(=O)N1Cc1c(F)cc(-c2c(F)ccc3nn(C)cc23)cc1F [Compound 37] = 64
• [2H]C1([2H])c2ncccc2C(=O)N1Cc1ccc(-c2cnc3nn(C)cc3c2)cc1F [Compound 21] = 76
• [2H]C1([2H])c2ncccc2C(=O)N1Cc1c(F)cc(-c2ccc(OC)c3nn(C([2H])([2H])[2H])cc23)cc1F [Compound 51] = 89

###

- MEASURED TARGET: human mAChR M1 (Homo sapiens)
- Sequence (P11229 1-460): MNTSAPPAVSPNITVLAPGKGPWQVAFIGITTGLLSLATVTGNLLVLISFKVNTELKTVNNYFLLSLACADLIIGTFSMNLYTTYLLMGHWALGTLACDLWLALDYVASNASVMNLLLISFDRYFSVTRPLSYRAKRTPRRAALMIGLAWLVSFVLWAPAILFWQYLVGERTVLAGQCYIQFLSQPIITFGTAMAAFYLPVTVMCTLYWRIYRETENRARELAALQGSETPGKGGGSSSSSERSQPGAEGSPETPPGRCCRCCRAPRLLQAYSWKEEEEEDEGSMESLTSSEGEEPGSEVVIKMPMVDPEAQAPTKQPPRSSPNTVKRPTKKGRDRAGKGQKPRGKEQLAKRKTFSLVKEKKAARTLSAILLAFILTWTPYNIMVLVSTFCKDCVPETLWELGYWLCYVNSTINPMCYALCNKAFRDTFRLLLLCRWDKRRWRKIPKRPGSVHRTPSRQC
- PROCEDURE DETAILS: mAChR M1 cell-based functional assay (calcium mobilization), PAM mode: increase in the EC20 acetylcholine response
Reported values of Emax for individual entries
METRIC: Emax

- [2H]C1([2H])c2ncccc2C(=O)N1Cc1c(F)cc(-c2cccc3c2cnn3C(C)C)cc1F [Compound 64]: 79%
- [2H]C1([2H])c2ncccc2C(=O)N1Cc1c(F)cc(-c2cccc3nn(C(F)F)cc23)cc1F [Compound 50]: 85%
- [2H]C1([2H])c2ncccc2C(=O)N1Cc1c(F)cc(-c2ccc(O[C@H](C)COC)c3nn(C)cc23)cc1F [Compound 148]: 81%
- [2H]C1([2H])c2ncccc2C(=O)N1Cc1c(F)cc(-c2ccc(O[C@H]3CCOC3)c3nn(C)cc23)cc1F [Compound 136]: 74%
- [2H]C1([2H])c2ncccc2C(=O)N1Cc1c(F)cc(-c2cnc3nn(C)cc3c2)cc1F [Compound 3]: 56%
- [2H]C1([2H])c2ncccc2C(=O)N1Cc1ccc(-c2cccc3nn(C)cc23)cc1C(C)C [Compound 233]: 43%
- [2H]C1([2H])c2ncccc2C(=O)N1Cc1c(F)cc(-c2cn(C)c(=O)c3c2cnn3C)cc1F [Compound 80]: 59%

###

- MEASURED TARGET: UniProt P11229
- PROCEDURE DETAILS: mAChR M1 cell-based functional assay (calcium mobilization), agonist mode: compound alone, Emax relative to acetylcholine maximum
- CONDITION INFO: human mAChR M1
pEC50: −log10 of the molar value.
METRIC: pEC50

* [2H]C1([2H])c2ncccc2C(=O)N1Cc1c(F)cc(-c2ccc(OCCOC)c3nn(C([2H])([2H])[2H])cc23)cc1F | 5.10
* [2H]C1([2H])c2ncccc2C(=O)N1Cc1c(F)cc(-c2ccc(F)c3nn(C)cc23)cc1C1CC1 | 5.22

###

- MEASURED TARGET: human mAChR M1 (Homo sapiens)
- PROCEDURE DETAILS: mAChR M1 cell-based functional assay (calcium mobilization), PAM mode: increase in the EC20 acetylcholine response
Reported values of Emax for individual entries
METRIC: Emax (%)

• [2H]C1([2H])c2ncccc2C(=O)N1Cc1c(F)cc(-c2ccc(OC3CCOC3)c3nn(C([2H])([2H])[2H])cc23)cc1F (stereo not shown) = 63
• [2H]C1([2H])c2ncccc2C(=O)N1Cc1c(F)cc(-c2cccc3nn(C)cc23)cc1OC = 73
• [2H]C([2H])([2H])Oc1cnc2c(c1)C(=O)N(Cc1ccc(-c3ccc4nn(C)cc4c3)cc1F)C2([2H])[2H] = 65
• [2H]C1([2H])c2ncccc2C(=O)N1Cc1ccc(-c2cc(C)c3nn(C)cc3c2)cc1 = 79
• [2H]C1([2H])c2ncccc2C(=O)N1Cc1c(F)cc(-c2ccc3nn(C)cc3c2)cc1F = 62
• [2H]C1([2H])c2ncccc2C(=O)N1Cc1c(C)cc(-c2ccnc3nn(C)cc23)cc1F = 83
• [2H]C1([2H])c2ncccc2C(=O)N1Cc1ccc(-c2ccc(OCCOC3CC3)c3nn(C)cc23)cc1F = 77
